These data points were gathered from patent US6410792B1.

Target: Human NPY5 receptor (Homo sapiens)
Experiment: Human NPY5 receptor binding assay ([125I]PYY, membrane protein)
Conditions: hNPY5 IC50, [125I]PYY binding
Kindly state IC50 for each of the entries shown.
One number for each entry, in nM.

Can you look up IC50 on Human NPY5 receptor (Homo sapiens) for O=C(CN1CCC(O)(c2ccccc2)CC1)Nc1ccc(C(=O)c2ccccc2)cc1 ?
60

We next turn to a different compound, shown below.
Param readout = IC50; param system = Human NPY5 receptor (Homo sapiens); param query = O=C(CN1CCC(O)(c2ccccc2)CC1)Nc1ccc(C2CCCCC2)cc1 ; response: value
93

###

Molecular target: Human NPY5 receptor (Homo sapiens, UniProt Q15761)
Sequence (Q15761 whole entry): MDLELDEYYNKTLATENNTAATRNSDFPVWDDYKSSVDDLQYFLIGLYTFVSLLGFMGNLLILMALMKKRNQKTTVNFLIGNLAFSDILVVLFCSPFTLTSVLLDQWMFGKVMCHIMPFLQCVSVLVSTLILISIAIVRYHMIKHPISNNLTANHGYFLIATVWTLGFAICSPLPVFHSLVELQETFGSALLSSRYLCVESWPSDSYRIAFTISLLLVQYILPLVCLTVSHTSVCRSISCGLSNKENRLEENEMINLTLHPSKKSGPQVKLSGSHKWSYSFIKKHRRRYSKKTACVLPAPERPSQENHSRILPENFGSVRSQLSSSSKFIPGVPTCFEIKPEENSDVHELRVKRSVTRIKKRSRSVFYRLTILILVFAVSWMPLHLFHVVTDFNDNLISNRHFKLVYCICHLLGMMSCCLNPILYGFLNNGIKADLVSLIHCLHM
Assay: Human NPY5 receptor binding assay ([125I]PYY, membrane protein)
Details: [125I]PYY, read-out: hNPY5 IC50
Counter-ions that a name gives are not always drawn.
test_readout: pIC50
One number for each entry, as −log10 of the molar value.

Worked examples follow.
Could you tell me which pIC50 is on file for CC(=O)NC1CCN(CC(=O)Nc2ccc(C3CCCCC3)cc2)C1.O=C(O)C(=O)O (centres unmarked) ?
6.72

Cool, now N#CC1(c2ccccc2)CCN(CC(=O)Nc2ccc(C3CCCCC3)cc2)CC1 [Compound 295, hydrochloride]
8.33

Please give the result for Cl.O=C(CN1CCC(n2c(=O)[nH]c3ccccc32)CC1)Nc1ccc2c(c1)C(=O)c1ccccc1-2 [Compound 306, hydrochloride] too.
7.36

Others:
Given the molecule O=C(CN1CCC(n2c(=O)[nH]c3ccccc32)CC1)Nc1ccc(C=Cc2ccccc2)cc1 , what is its reported pIC50?
6.10
